Assay: Pharmacokinetics study in rats after single or combined intragastric administration
Assay type: in vivo, Sprague-Dawley rats
Details: male, Sprague-Dawley, rat, plasma, po, 2.6 mg/kg, omarigliptin 2.6 mg/kg in combination with pioglitazone 2.6 mg/kg, intragastric, male SD rats, n = 5
METRIC: AUC(0-t) (ng·h/mL)
Just the number please, in ng·h/mL, no unit attached.

Lookup: Return AUC(0-t) (reported value) for this compound: CS(=O)(=O)n1cc2c(n1)CN([C@H]1CO[C@H](c3cc(F)ccc3F)[C@@H](N)C1)C2
Found: 30400

----------
Assay: Pharmacokinetics study in rats after single or combined intragastric administration
Type: in vivo, Sprague-Dawley rats
Conditions: male, Sprague-Dawley, rat, plasma, po, 2.6 mg/kg, pioglitazone 2.6 mg/kg intragastric, single administration, male SD rats, n = 5
Where a name gives a salt, the structure may show the parent alone.
METRIC: AUC(0-inf) (ng·h/mL)
Just the number please, in ng·h/mL, no unit attached.

Lookup: Return AUC(0-inf) (reported value) for this compound: CCc1ccc(CCOc2ccc(CC3SC(=O)NC3=O)cc2)nc1 (stereo not shown) [Pioglitazone, Pioglitazone hydrochloride]
Found: 17000

----------
Assay: Pharmacokinetics study in rats after single or combined intragastric administration
Assay type: in vivo, Sprague-Dawley rats
Details: male, Sprague-Dawley, rat, plasma, po, 2.6 mg/kg, pioglitazone 2.6 mg/kg in combination with omarigliptin 2.6 mg/kg, intragastric, male SD rats, n = 5
Where a name gives a salt, the structure may show the parent alone.
METRIC: AUC(0-t) (ng·h/mL)
Just the number please, in ng·h/mL, no unit attached.

Lookup: Return AUC(0-t) (reported value) for this compound: CCc1ccc(CCOc2ccc(CC3SC(=O)NC3=O)cc2)nc1 (stereo not shown) [Pioglitazone, Pioglitazone hydrochloride]
Found: 19000

----------
Assay: Pharmacokinetics study in rats after single or combined intragastric administration
Assay type: in vivo, Sprague-Dawley rats
Conditions: male, Sprague-Dawley, rat, plasma, po, 2.6 mg/kg, pioglitazone 2.6 mg/kg in combination with omarigliptin 2.6 mg/kg, intragastric, male SD rats, n = 5
Structures can show the parent of a compound that is named as a salt.
METRIC: half-life (h)
Just the number please, in h, no unit attached.

Lookup: Return half-life (reported value) for this molecule: CCc1ccc(CCOc2ccc(CC3SC(=O)NC3=O)cc2)nc1 (stereo not shown) [Pioglitazone, Pioglitazone hydrochloride]
Found: 2.1

----------
Test: Pharmacokinetics study in rats after single or combined intragastric administration
Assay type: in vivo, Sprague-Dawley rats
Settings: male, Sprague-Dawley, rat, plasma, po, 2.6 mg/kg, pioglitazone 2.6 mg/kg intragastric, single administration, male SD rats, n = 5, read-out: t max
Where a name gives a salt, the structure may show the parent alone.
METRIC: Tmax (h)
Just the number please, in h, no unit attached.

Lookup: Return Tmax (reported value) for this molecule: CCc1ccc(CCOc2ccc(CC3SC(=O)NC3=O)cc2)nc1 (stereo not shown) [Pioglitazone, Pioglitazone hydrochloride]
Found: 1.8

----------
Assay: Pharmacokinetics study in rats after single or combined intragastric administration
Assay type: in vivo, Sprague-Dawley rats
Details: male, Sprague-Dawley, rat, plasma, po, 2.6 mg/kg, omarigliptin 2.6 mg/kg in combination with pioglitazone 2.6 mg/kg, intragastric, male SD rats, n = 5, read-out: t max
METRIC: Tmax (h)
Just the number please, in h, no unit attached.

Lookup: Return Tmax (reported value) for this molecule: CS(=O)(=O)n1cc2c(n1)CN([C@H]1CO[C@H](c3cc(F)ccc3F)[C@@H](N)C1)C2
Found: 1.8

The origin of these recorded values is paper PMC8205603.
